Target: Yap3 (UniProt P38749)
Sequence: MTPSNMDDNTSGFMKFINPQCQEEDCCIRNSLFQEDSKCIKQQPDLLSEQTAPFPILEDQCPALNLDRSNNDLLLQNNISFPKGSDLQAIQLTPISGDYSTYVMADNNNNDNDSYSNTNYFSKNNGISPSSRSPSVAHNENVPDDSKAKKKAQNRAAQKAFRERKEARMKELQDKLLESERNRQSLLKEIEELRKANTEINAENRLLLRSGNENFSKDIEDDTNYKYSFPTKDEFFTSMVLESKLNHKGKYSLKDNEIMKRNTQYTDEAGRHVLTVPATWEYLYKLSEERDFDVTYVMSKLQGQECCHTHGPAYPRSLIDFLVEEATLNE
Experiment: PBM E-score (8-mer binding enrichment) (E-score (-0.5 to 0.5)); higher = stronger / more preferred TF binding
Conditions: protein concentration: 100 nM; construct: GST-full length
In all, about 33,000 sequences were measured (“E-score (-0.5 to 0.5)”: median about -0.0034, highest 2% from about 0.25 on). This excerpt belongs to a sample that is enriched for the highest values.
Result type: PBM E-score

Macromolecule sequence: AAGAAGGG
Tgt: Yap3 (UniProt P38749)
Data value: -0.0033
//
Macromolecule sequence: CTCGCGAC
Tgt: Yap3 (UniProt P38749)
Data value: 0.068
//
Macromolecule sequence: AAAGAGAT
Tgt: Yap3 (UniProt P38749)
Data value: -0.0227
//
Macromolecule sequence: GTGACTCA
Tgt: Yap3 (UniProt P38749)
Data value: 0.0409
//
Macromolecule sequence: TAGGAGAA
Tgt: Yap3 (UniProt P38749)
Data value: -0.178
//
Macromolecule sequence: CTGACTAA
Tgt: Yap3 (UniProt P38749)
Data value: 0.392
//
Macromolecule sequence: ATACAGGG
Tgt: Yap3 (UniProt P38749)
Data value: 0.14

* * *

Target: Yap3 (UniProt P38749)
Sequence: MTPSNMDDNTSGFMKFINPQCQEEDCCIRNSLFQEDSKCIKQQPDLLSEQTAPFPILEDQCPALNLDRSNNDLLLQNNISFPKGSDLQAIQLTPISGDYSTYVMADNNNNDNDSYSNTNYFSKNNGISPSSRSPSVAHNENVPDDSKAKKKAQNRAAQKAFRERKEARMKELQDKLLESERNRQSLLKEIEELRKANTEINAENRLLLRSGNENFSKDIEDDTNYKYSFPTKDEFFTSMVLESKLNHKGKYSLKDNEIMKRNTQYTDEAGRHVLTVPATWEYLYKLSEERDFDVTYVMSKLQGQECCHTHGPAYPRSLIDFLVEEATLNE
Experiment: PBM E-score (8-mer binding enrichment) (E-score (-0.5 to 0.5)); higher = stronger / more preferred TF binding
Conditions: protein concentration: 100 nM; construct: GST-full length
The full ranking holds about 33,000 sequences; the median of “E-score (-0.5 to 0.5)” is about -0.0034, and the highest 2% start at about 0.25. The full list was thinned out, with the highest values kept by preference.

Macromolecule sequence: CCACCAAC
PBM E-score: 0.0331

Macromolecule sequence: TATTACCA
PBM E-score: 0.196

Macromolecule sequence: CTGTGGCC
PBM E-score: -0.361

Macromolecule sequence: CAGAATCA
PBM E-score: 0.0924

Macromolecule sequence: AAACTAAA
PBM E-score: 0.261

Macromolecule sequence: ATCGATGC
PBM E-score: 0.133

Macromolecule sequence: CAACAGAA
PBM E-score: -0.0742
